Collected from the literature: IC50 of various compounds toward JNK3 (Homo sapiens, UniProt P53779).
quantity.name: IC50

* CC1CCC(c2cnc3[nH]cc(-c4csc(C(=O)N(C)C)n4)c3c2)CC1 (stereo not drawn) | 117 nM
* Cn1cnc(NC(=O)c2cc(-n3ncc4cc(Nc5ccccc5Cl)cnc43)cs2)c1 | < 200 nM
* Cn1cc(-c2c[nH]c3ncc(CN4CCc5ccccc54)cc23)cn1 | < 500 nM
* COc1ccc(CC(=O)Nc2ccsc2-n2cncn2)cc1 | > 10000 nM
* C1=Cc2cccc3[nH]nc(c23)-c2ccccc21 | ≤ 300 nM
* Cc1csc(NC(=O)Cc2cccc3cnccc23)c1-c1nc2ccccc2s1 | 100 to 10000 nM
* c1ccc(-c2cnc3[nH]ccc3c2)cc1 | ≤ 10000 nM
* Cn1cc(-c2c[nH]c3ncc(C4=CC5CC[C@]4(C)C5(C)C)cc23)cn1 | 148 nM
* Cn1cc(-c2c[nH]c3ncc(C4CCCCCC4)cc23)cn1 | 162 nM

----------
Collected from the literature: IC50 of various compounds toward JNK3 (Homo sapiens).
quantity.name: IC50

• Fc1ccc(-c2nc3n(c2-c2ccnc(NC4CCC4)n2)[C@H](COc2ccnc4ccccc24)CC3)cc1 = 71 nM
• NC(=O)c1cccc(-c2cnc3[nH]cc(C(=O)c4ccccc4O)c3c2)c1 = ≤ 10000 nM
• O=C(NC1COC1)c1cc(-n2ncc3cc(Oc4ccccc4Cl)ccc32)cs1 = < 200 nM
• CS(=O)(=O)c1cccc(-c2cnc3[nH]cc(C(=O)c4cc(O)ccc4F)c3c2)c1 = ≤ 10000 nM

----------
pIC50: −log10 of the molar value.
Collected from the literature: pIC50 of various compounds toward JNK3 (Homo sapiens).
quantity.name: pIC50

- CNC(=O)c1cc(-n2ncc3nc(Nc4ccccc4Cl)ccc32)cs1: > 6.70
- COc1ccc(CC(=O)Nc2ccsc2-c2cn(C)cn2)cc1: < 5.00
- COCC(COC)NC(=O)c1cc(-n2ncc3cc(Oc4ccccc4Cl)ncc32)cs1: 6.00 to 6.70
- CCC1CCC(c2cnc3[nH]cc(-c4cnn(C)c4)c3c2)CC1 (mixture of isomers): 7.60
- CCCOc1ccc(Nc2cnc3[nH]ccc3c2)cc1: ≥ 5.00
- CC1CC(c2cnc3[nH]cc(-c4cnn(C)c4)c3c2)CC(C)(C)C1 (mixture of isomers): 6.59
- O=C(c1cnc2[nH]cc(-c3ccoc3)c2c1)N1CCc2ccccc2C1: > 6.30
- O=C(Cc1ccc(F)c2cnccc12)Nc1scc(Br)c1-c1ncn[nH]1: > 7.00
- COc1nc(-c2c[nH]c3ncc([C@H]4CC[C@H](N5CCCOCC5)CC4)cc23)cs1: 6.28

----------
Collected from the literature: IC50 of various compounds toward UniProtKB P53779.
quantity.name: IC50

• Cc1n[nH]c(-c2sccc2NC(=O)Cc2cccc3ccccc23)n1 = 100 to 10000 nM
• CNC(=O)c1cc(-n2ncc3cc(Nc4ccccc4Cl)cnc32)c(C)s1 = < 200 nM
• O=C(c1ccc(-c2cnc3[nH]ccc3c2)cc1)N1CCCC1 = ≤ 10000 nM
• CCCCNC(=O)Nc1cccc(C(=O)c2c[nH]c3ncc(-c4cccnc4)cc23)c1Cl = ≤ 10000 nM
• O=C(Cn1c(=O)ccc2cc(Cl)ccc21)Nc1scc(Br)c1-c1ncn[nH]1 = < 100 nM
• COc1cnc2[nH]cc(-c3cn[nH]c3)c2c1 = < 1000 nM
• CNC(=O)c1cc(-n2ncc3cc(Nc4c(Cl)cccc4OC)cnc32)cs1 = < 200 nM
• O=C(Cc1cccc2ncccc12)Nc1ccsc1-c1nnc[nH]1 = 100 to 10000 nM
• Cc1cnc(-c2c[nH]c3ncc([C@H]4CC[C@H](N5CCOCC5)CC4)cc23)s1 = 871 nM
• O=C(c1ccc(O)cc1)c1c[nH]c2ncc(-c3cccs3)cc12 = ≤ 10000 nM
• O=S(=O)(NCc1c[nH]c2ncccc12)c1ccsc1 = ≤ 10000 nM
• CC1CCC(c2cnc3[nH]cc(-c4csc(C(=O)N5CCN(C)CC5)n4)c3c2)CC1 (stereo not shown) = 16 nM
• c1nc(-c2c[nH]c3ncc([C@H]4CC[C@H](N5CCCOCC5)CC4)cc23)cs1 = > 2000 nM
• COc1ccc(CC(=O)Nc2ccsc2-c2nc(C3CCCO3)n[nH]2)cc1 (stereo not shown) = 100 to 10000 nM
• COc1cc(O)cc(Cc2c[nH]c3ncc(-c4ccsc4)cc23)c1 = ≤ 10000 nM
• N#CCNC(=O)c1cc(-n2ncc3cc(Nc4ccccc4Cl)ccc32)cs1 = < 200 nM
• O=C(CN1C(=O)CCc2cnccc21)Nc1scc(Br)c1-c1ncn[nH]1 = < 100 nM
• Cc1n[nH]c(-c2c(C)csc2NC(=O)Cc2ccc(OCCCN3CCCCC3)cc2)n1 = 100 to 10000 nM
• O=C(NC1CC1)c1cc(-n2ncc3cc(Nc4ccccc4Cl)c(F)cc32)cs1 = < 200 nM
